Biological target: T1, Tn-MUC1 on ZR-75-1 cells (human, UniProt P15941 24-1255, Tn glycoform (GalNAcα1-O-Ser/Thr) as expressed by the cells)
T1 construct: whole, on cells; also called ZR-75-1 cell line, which expresses Tn-MUC1; Tn-MUC1(+ve) cell line ZR75-1
T1 sequence (P15941 24-1255): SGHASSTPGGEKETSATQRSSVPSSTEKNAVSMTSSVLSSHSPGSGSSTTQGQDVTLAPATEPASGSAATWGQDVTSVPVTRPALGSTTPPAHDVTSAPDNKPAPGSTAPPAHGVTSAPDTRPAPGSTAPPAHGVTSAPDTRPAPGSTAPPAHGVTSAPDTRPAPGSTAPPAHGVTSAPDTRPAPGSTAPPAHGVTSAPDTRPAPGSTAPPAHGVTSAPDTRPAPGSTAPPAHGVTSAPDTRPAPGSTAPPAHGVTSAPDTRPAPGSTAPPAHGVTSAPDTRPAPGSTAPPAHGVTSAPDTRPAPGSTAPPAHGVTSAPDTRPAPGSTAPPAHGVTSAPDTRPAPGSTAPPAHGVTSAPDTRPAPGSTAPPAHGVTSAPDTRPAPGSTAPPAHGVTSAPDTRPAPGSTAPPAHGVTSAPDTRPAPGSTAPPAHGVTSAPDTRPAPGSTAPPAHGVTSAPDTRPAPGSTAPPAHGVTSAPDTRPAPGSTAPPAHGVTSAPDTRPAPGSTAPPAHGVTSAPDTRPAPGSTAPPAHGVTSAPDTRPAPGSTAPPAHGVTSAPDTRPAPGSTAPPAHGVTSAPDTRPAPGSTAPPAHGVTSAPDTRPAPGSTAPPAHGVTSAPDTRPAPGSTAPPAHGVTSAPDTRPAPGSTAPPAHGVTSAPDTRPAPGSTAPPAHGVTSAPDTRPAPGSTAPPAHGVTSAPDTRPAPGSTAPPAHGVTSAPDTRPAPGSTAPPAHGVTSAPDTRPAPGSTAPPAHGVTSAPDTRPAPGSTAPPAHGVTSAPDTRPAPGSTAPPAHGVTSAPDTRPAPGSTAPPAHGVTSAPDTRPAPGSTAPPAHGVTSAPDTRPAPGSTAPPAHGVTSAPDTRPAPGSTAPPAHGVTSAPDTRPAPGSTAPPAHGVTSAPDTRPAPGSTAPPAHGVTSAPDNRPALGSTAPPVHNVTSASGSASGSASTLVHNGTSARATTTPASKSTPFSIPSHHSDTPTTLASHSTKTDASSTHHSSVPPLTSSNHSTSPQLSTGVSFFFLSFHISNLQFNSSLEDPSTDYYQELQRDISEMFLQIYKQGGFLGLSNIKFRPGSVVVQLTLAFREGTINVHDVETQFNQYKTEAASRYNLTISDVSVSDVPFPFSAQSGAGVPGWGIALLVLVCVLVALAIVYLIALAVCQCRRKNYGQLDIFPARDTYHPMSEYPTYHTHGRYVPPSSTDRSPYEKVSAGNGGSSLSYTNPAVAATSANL
Assay: flow cytometry on ZR-75-1 cells (protocol 6)
One threshold, 0.02 µg/mL, splits the recorded EC50 values: lower ones are Y, equal or higher ones are N.

binder	class
Ab5 (antibody, human IgG1, V domains shown, Expressed as human IgG1/kappa from pFUSE-CHIg-hG1 and pFUSE2-CLIg-hk vectors; also called 5E5RHB10 / 5E5RKB) VH: EVQLVQSGAEVKKPGESLKISCKISGYIFTDHAIHWVRQMPGKGLEWMGHFSPGNTDIKYNDKFKGQVTLSVDRSINTAYLQWSSLKASDTAIYFCKTSTFFFDYWGQGTRVTVSS VL: DIVMTQSPLSLPVTPGEPASISCKSSQSLLNSGDQKNYLTWYLQKPGQSPQLLIYWASTRESGVPDRFSGSGSGTDFTLKISRVEAEDVGVYYCQNDYSYPLTFGGGTKVEIK	Y
Ab6 (antibody, human IgG1, V domains shown, Expressed as human IgG1/kappa from pFUSE-CHIg-hG1 and pFUSE2-CLIg-hk vectors; also called 5E5RHC9 / 5E5RKB) VH: EVQLVESGAEVKKPGASVEVSCQASGYTFTDHAIHWVRQAPGQGLEWMGHFSPGNTDIKYNDKFKGRVTMTVDRSINTAYMELRRLRSDDTAVYYCKTSTFFFDYWGQGTMVTVSS VL: DIVMTQSPLSLPVTPGEPASISCKSSQSLLNSGDQKNYLTWYLQKPGQSPQLLIYWASTRESGVPDRFSGSGSGTDFTLKISRVEAEDVGVYYCQNDYSYPLTFGGGTKVEIK	N
Ab3 (antibody, V domains shown, Expressed as human IgG1/kappa from pFUSE-CHIg-hG1 and pFUSE2-CLIg-hk vectors; also called 5E5RHC9 / 5E5RKA) VH: EVQLVESGAEVKKPGASVEVSCQASGYTFTDHAIHWVRQAPGQGLEWMGHFSPGNTDIKYNDKFKGRVTMTVDRSINTAYMELRRLRSDDTAVYYCKTSTFFFDYWGQGTMVTVSS VL: DIVMTQSPDSLAVSLGERATINCKSSQSLLNSGDQKNYLTWYQQKPGQPPKLLIYWASTRESGVPDRFSGSGSGTDFTLTISSLQAEDVAVYYCQNDYSYPLTFGQGTKVEIK	N
Ab1 (antibody, V domains shown, Expressed as human IgG1/kappa from pFUSE-CHIg-hG1 and pFUSE2-CLIg-hk vectors; also called 5E5RHA8 / 5E5RKA) VH: QVQLVQSGAEVKKTGSSVKVSCKASGYTFTDHAIHWVRQAPGQALEWMGHFSPGNTDIKYNDKFKGRVTLTVDRSMSTAYMELSSLRSEDTAMYYCKTSTFFFDYWGQGTMVTVSS VL: DIVMTQSPDSLAVSLGERATINCKSSQSLLNSGDQKNYLTWYQQKPGQPPKLLIYWASTRESGVPDRFSGSGSGTDFTLTISSLQAEDVAVYYCQNDYSYPLTFGQGTKVEIK	Y
Ab2 (antibody, V domains shown, Expressed as human IgG1/kappa from pFUSE-CHIg-hG1 and pFUSE2-CLIg-hk vectors; also called 5E5RHB10 / 5E5RKA) VH: EVQLVQSGAEVKKPGESLKISCKISGYIFTDHAIHWVRQMPGKGLEWMGHFSPGNTDIKYNDKFKGQVTLSVDRSINTAYLQWSSLKASDTAIYFCKTSTFFFDYWGQGTRVTVSS VL: DIVMTQSPDSLAVSLGERATINCKSSQSLLNSGDQKNYLTWYQQKPGQPPKLLIYWASTRESGVPDRFSGSGSGTDFTLTISSLQAEDVAVYYCQNDYSYPLTFGQGTKVEIK	Y
Ab4 (antibody, human IgG1, V domains shown, Expressed as human IgG1/kappa from pFUSE-CHIg-hG1 and pFUSE2-CLIg-hk vectors; also called 5E5RHA8 / 5E5RKB) VH: QVQLVQSGAEVKKTGSSVKVSCKASGYTFTDHAIHWVRQAPGQALEWMGHFSPGNTDIKYNDKFKGRVTLTVDRSMSTAYMELSSLRSEDTAMYYCKTSTFFFDYWGQGTMVTVSS VL: DIVMTQSPLSLPVTPGEPASISCKSSQSLLNSGDQKNYLTWYLQKPGQSPQLLIYWASTRESGVPDRFSGSGSGTDFTLKISRVEAEDVGVYYCQNDYSYPLTFGGGTKVEIK	N
Mouse 5E5 (antibody, V domains shown, V regions were subcloned into pFUSE-CHIg-hG1 (human IgG1) and pFUSE2-CLIg-hk (human kappa) vectors and expressed in HEK293 cells; also called mouse 5E5 antibody; 5E5VH/5E5VK) VH: QVQLQQSDAELVKPGSSVKISCKASGYTFTDHAIHWVKQKPEQGLEWIGHFSPGNTDIKYNDKFKGKATLTVDRSSSTAYMQLNSLTSEDSAVYFCKTSTFFFDYWGQGTTLTVSS VL: DIVMTQSPSSLTVTAGEKVTMICKSSQSLLNSGDQKNYLTWYQQKPGQPPKLLIFWASTRESGVPDRFTGSGSGTDFTLTISSVQAEDLAVYYCQNDYSYPLTFGAGTKLELK	N
